Biological target: NHE (Na^+ /H^+ exchanger) (Rattus norvegicus, UniProt P26431)
Construct: A rat mesenteric artery was isolated; from tissue; host or cells: isolated rat mesenteric artery segments
Sequence (P26431 whole entry): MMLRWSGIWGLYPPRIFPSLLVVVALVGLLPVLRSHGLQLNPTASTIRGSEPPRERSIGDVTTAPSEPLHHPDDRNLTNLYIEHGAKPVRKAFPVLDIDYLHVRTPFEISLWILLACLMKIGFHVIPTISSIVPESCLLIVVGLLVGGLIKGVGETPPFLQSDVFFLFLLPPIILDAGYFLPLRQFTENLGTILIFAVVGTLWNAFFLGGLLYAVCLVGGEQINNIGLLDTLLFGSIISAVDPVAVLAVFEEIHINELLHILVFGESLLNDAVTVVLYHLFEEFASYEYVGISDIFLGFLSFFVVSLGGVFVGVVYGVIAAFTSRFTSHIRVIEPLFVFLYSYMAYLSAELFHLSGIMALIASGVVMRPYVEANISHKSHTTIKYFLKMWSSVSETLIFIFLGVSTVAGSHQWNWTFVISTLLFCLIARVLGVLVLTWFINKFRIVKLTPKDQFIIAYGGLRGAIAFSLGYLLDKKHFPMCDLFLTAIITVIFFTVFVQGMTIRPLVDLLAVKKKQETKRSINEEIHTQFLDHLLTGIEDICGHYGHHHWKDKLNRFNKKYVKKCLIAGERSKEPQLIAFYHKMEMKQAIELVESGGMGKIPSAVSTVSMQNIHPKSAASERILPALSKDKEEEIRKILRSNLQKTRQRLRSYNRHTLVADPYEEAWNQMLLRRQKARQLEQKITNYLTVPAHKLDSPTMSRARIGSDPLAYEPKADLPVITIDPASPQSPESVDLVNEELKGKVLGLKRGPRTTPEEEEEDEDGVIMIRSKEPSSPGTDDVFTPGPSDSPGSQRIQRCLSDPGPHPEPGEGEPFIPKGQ
Sequence (P61023 2-195 partner limits assumed): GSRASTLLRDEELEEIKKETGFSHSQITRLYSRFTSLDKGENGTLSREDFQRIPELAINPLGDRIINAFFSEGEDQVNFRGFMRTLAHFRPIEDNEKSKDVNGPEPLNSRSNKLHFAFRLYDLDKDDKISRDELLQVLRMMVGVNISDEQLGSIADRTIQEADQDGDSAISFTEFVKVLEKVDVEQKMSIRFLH
Test: NHE inhibitory activity (recovery of the pH in cells after acid load, BCECF, rat mesenteric artery)
Assay type: cell-based
Conditions: Conc. 0.1 μM, read-out: Percent NHE inhibition (%)
Protocol: The NHE inhibitory activity was measured by the following method using a pH in cells as an index. A rat mesenteric artery was isolated, and was loaded with a pH-sensitive dye BCECF. […] The pH in cells was measured in terms of a ratio of fluorescent intensities through 2-wavelength excitation of 495 nm (pH-sensitive wavelength)/450 nm (pH-non-sensitive wavelength). […]
value_type: inhibition at 0.1 µM (%)

Worked cases, inhibition at 0.1 µM given:
Task: For the compound NC(N)=NC(=O)c1cc(-c2ccccc2)nc2ccccc12 , give its measured inhibition at 0.1 µM value.
Output: 5.2

Task: For the compound Cc1cccc(-c2cc(C(=O)N=C(N)N)c3ccccc3n2)c1 , give its measured inhibition at 0.1 µM value.
Output: 21.2

Task: For the compound NC(N)=NC(=O)c1cc(-c2ccccc2)nc2c(N)cccc12 , give its measured inhibition at 0.1 µM value.
Output: 30.6

Task: For the compound COc1ccc(OC)c2c(C(=O)N=C(N)N)cc(-c3ccccc3C)nc12 , give its measured inhibition at 0.1 µM value.
Output: 72.7

Task: For the compound Cc1ccccc1-c1cc(C(=O)N=C(N)N)c2ccccc2n1 , give its measured inhibition at 0.1 µM value.
Output: 49.2

(P) NC(N)=NC(=O)c1cc(-c2ccc(F)cc2)nc2ccccc12
(Q) COc1cccc2c(C(=O)N=C(N)N)cc(-c3ccccc3)nc12
Task: Higher inhibition at 0.1 µM between P and Q ? Reply briefly: the label of your chosen item.
Output: Q
(Q: 47.4%, P: 14.4%)
